target: human PDE9A2 (Homo sapiens, UniProt O76083); construct: made in house; host or cells: Sf9 insect cells (infected; crude lysate used as enzyme source); test: PDE9A2 enzymatic activity assay (scintillation proximity assay); format: biochemical; conditions: specific IC50 value is within the given range
Sequence (O76083 1-533 isoform O76083-2): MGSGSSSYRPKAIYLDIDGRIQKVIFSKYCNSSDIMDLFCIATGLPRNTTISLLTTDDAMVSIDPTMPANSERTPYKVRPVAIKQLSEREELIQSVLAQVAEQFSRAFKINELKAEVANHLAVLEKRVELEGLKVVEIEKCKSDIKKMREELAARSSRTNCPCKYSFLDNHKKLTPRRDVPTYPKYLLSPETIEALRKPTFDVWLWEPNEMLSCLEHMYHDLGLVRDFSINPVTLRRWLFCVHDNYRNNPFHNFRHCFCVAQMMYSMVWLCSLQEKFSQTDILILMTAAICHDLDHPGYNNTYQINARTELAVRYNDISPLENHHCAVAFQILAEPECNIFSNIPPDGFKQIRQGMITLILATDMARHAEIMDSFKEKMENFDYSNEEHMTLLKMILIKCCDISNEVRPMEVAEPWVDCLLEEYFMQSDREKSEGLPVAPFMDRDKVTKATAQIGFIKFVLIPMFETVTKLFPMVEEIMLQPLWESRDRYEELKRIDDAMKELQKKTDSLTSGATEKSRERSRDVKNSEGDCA
pIC50: −log10 of the molar value.
Can you tell me pIC50 for the items I'm about to list?

INPUT: Any idea what its pIC50 is? The molecule is `COc1cc(-c2cc(F)ccc2Cc2nc3c(cnn3C3CCC(F)(F)CC3)c(=O)[nH]2)ccn1`
OUTPUT: 5.82 to 7.00

INPUT: Any idea what its pIC50 is? The molecule is `O=c1[nH]c(Cc2cc(F)ccc2-c2ccccn2)nc2c1cnn2C1CCC(F)(F)CC1`
OUTPUT: 7.00 to 9.00

INPUT: Any idea what its pIC50 is? The molecule is `O=c1[nH]c(Cc2ccccc2-c2ccnnc2)nc2c1cnn2C1CCC(F)(F)CC1`
OUTPUT: 7.00 to 9.00

INPUT: Any idea what its pIC50 is? The molecule is CC(Cc1nc2c(cnn2C2CCC(F)(F)CC2)c(=O)[nH]1)C(F)F (racemic)
OUTPUT: 5.82 to 7.00

INPUT: Any idea what its pIC50 is? The molecule is `O=c1[nH]c(Cc2ccccc2-n2cccc2)nc2c1cnn2C1CCC(F)(F)CC1`
OUTPUT: 7.00 to 9.00

INPUT: Any idea what its pIC50 is? The molecule is COC1CCCCC1n1ncc2c(=O)[nH]c(CC3CC3)nc21 (racemic)
OUTPUT: 5.82 to 7.00

Origin of measurements: patent US9079905B2
